test: Concentration required for inhibition of human serine dependent Phospholipase A2
pIC50: −log10 of the molar value.
readoutType: pIC50

Check out these entries, answers already filled in.
{"columns": ["compoundString", "readoutType", "reportedValue"],
 "data": [
  ["CCCCCCCCCCCCN(C)C(=O)Cn1cc(Cc2cnc(OC)nc2)c(=O)nc1SCc1ccc(F)cc1", "pIC50", 9.00],
  ["CCCCCCCCN(C)C(=O)Cn1cc(Cc2cnc(=O)n(CC(=O)NC)c2)c(=O)nc1SCc1ccc(F)cc1", "pIC50", 8.22],
  ["CCCCCCCCN(C)C(=O)Cn1cc(Cc2cnc(=O)n(CCO)c2)c(=O)nc1SCc1ccc(F)cc1", "pIC50", 8.30]
]}

(a) CCCCCCCCN(C)C(=O)Cn1cc(Cc2cnc(=O)n(CC(=O)O)c2)c(=O)nc1SCc1ccc(F)cc1
(b) CCCCCCCCCCCCN(C)C(=O)Cn1cc(Cc2cnc(=O)n(C)c2)c(=O)nc1SCc1ccc(F)cc1
Query string: // which entry reports the smaller pIC50, a or b ? Answer format: the label of the selected item.
Result string: a

(P) CCCCCCCCN(C)C(=O)Cn1cc(Cc2cncnc2)c(=O)nc1SCc1ccc(F)cc1
(Q) CCCCCCCCN(C)C(=O)Cn1cc(Cc2cnc(=O)n(CC(=O)N3CCN(C)CC3)c2)c(=O)nc1SCc1ccc(F)cc1
(R) CCCCCCCCCCCCN(C)C(=O)Cn1cc(Cc2cnc(=O)n(CC(=O)NC)c2)c(=O)nc1SCc1ccc(F)cc1
(S) CCCCCCCCN(C)C(=O)Cn1cc(Cc2cnc(=O)n(CC(=O)OCC)c2)c(=O)nc1SCc1ccc(F)cc1
(T) CCCCCCCCN(C)C(=O)Cn1cc(Cc2cnc(=O)n(CC(=O)NCCO)c2)c(=O)nc1SCc1ccc(F)cc1
Query string: Task field, ranking: reported pIC50, descending order. As an answer, provide the labels arranged in the order called for.
Result string: R, Q, T, P, S
(R: 9.40, Q: 8.52, T: 8.10, P: 7.82, S: 7.12)
